- Tgt: Aromatase (Homo sapiens, UniProt P11511)
- Sequence (P11511 whole entry): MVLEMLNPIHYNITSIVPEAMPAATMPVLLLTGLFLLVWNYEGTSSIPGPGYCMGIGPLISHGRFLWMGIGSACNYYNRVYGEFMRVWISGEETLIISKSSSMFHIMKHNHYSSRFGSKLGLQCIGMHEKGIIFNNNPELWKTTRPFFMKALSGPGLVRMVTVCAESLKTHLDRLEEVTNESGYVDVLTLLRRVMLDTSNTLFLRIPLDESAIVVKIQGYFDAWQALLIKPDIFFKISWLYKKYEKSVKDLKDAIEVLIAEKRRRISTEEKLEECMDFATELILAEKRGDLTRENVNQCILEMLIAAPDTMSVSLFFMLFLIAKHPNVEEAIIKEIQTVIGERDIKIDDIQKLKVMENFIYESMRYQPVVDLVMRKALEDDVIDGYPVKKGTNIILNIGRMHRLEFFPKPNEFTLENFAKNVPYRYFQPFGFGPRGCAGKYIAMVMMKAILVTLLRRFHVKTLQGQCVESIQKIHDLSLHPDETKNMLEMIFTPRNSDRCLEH
pIC50: −log10 of the molar value.
Respond with class 1 for pIC50 values of 5 and above, class 0 for values below.

Could you tell me if the measured pIC50 of C[C@]12CCCCC1=CC[C@@H]1[C@@H]2CC[C@]2(C)C(=O)CC[C@@H]12 reaches 5 or more?
class 1

Given the entry CC12CCC3C(C(=O)C=C4CCCCC43CO)C1CCC2O (stereo unspecified) , answer whether its pIC50 meets or surpasses 5.
class 0

Does CC12CCC3C4CCCCC4=CC(=O)C3C1CCC2=O (stereo unspecified) have a reported pIC50 of at least 5?
class 0

Record CC12CCC=CC1=CC(=O)C1C2CCC2(C)C1CC[C@@H]2O (stereo partly specified) ; criterion: pIC50 no lower than 5. Met?
class 0

Does C[C@]12CCC(=O)C=C1CC[C@@H]1[C@@H]2CC[C@]2(C)C(=O)CC[C@@H]12 [ANDROSTENEDIONE] have a reported pIC50 of at least 5?
class 1

Dear colleague, could you confirm whether CC12CCC3C(CC=C4CCCCC43CO)C1CCC2O (stereo unspecified) has pIC50 at or above 5?
class 0

API: above_or_equal(metric=pIC50, cutoff=5) for item CC12CCCCC1=CCC1C2CCC2(C)C(O)CCC12 (stereo unspecified)
class 0

Does CC12CCC3C(CC=C4C=CCCC43C)C1CCC2=O (stereo unspecified) have a reported pIC50 of at least 5?
class 1

Given CC12CCC3C(C(=O)C=C4C=CCCC43C)C1CCC2=O (stereo unspecified) , state whether its pIC50 is at least 5.
class 1

// inclusive: pIC50 at least 5? input: CC12CCC3C(CC=C4CCCCC43C)C1C[C@@H](Br)C2=O (stereo partly specified)
class 0

Textbook exercise: given the entry C[C@]12CC[C@H]3[C@@H](CC=C4CCCC[C@@]43CO)[C@@H]1CCC2=O , state whether its pIC50 is greater than or equal to 5.
class 1

Hi, just wondering whether CC12CCCCC1=CC(=O)C1C2CCC2(C)C(O)CCC12 (stereo unspecified) shows pIC50 of 5 or higher.
class 0

Please indicate if the recorded pIC50 for CC12CCC3C(C(=O)C=C4CCCCC43CO)C1CCC2=O (stereo unspecified) meets or exceeds 5.
class 0

Does CC12CCC=CC1=CCC1C2CCC2(C)C1CC[C@@H]2O (stereo partly specified) have a reported pIC50 of at least 5?
class 0

Exam item: decide whether the reported pIC50 for CC12CCC3C4CCC(=O)C=C4CCC3C1CCC2=O (stereo unspecified) is at least 5.
class 1

Source: ChEMBL document CHEMBL1127575
